The reader will find pIC50 measurements below, all made with NAD-dependent protein deacetylase sirtuin-1 (Homo sapiens, UniProt Q96EB6).
Sequence (Q96EB6 whole entry): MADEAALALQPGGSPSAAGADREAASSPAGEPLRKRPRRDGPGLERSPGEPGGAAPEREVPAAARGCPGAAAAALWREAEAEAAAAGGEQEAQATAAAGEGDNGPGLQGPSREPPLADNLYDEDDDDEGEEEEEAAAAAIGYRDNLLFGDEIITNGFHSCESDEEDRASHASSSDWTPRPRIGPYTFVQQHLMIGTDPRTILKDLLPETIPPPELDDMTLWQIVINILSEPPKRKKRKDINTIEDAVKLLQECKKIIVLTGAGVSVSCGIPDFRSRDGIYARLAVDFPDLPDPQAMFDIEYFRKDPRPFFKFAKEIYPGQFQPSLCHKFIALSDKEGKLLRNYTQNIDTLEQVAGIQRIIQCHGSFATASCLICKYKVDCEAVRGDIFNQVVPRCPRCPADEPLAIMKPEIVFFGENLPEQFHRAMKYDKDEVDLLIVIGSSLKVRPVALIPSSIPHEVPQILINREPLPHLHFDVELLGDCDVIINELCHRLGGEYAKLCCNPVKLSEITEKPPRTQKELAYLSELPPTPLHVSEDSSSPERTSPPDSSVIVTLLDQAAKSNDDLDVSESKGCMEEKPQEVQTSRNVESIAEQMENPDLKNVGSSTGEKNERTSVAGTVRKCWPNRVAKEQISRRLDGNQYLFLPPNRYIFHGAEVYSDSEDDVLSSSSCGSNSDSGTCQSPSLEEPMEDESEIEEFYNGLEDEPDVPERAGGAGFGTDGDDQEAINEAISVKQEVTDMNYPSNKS
The quantity pIC50 is defined as the negative base-10 logarithm of the molar concentration.

Past entries and their recorded results:
COc1ccc(O)cc1C(=O)c1coc2ccc(O)cc12: 4.38
O=C(c1ccc(Br)cc1)c1coc2ccc(O)cc12: 3.62

Next item in the queue.
Task item: Give pIC50 (NAD-dependent protein deacetylase sirtuin-1 (Homo sapiens, UniProt Q96EB6)) of the following molecule: `COc1ccc(O)c(C(=O)c2coc3ccc(O)cc23)c1`
Reply: 4.35

meta.source: ChEMBL document CHEMBL2311269
